Test: Toxicity liver stage against HepG2, at 10uM
Assay type: cell-based
Design: test concentration 10 uM, cell line HepG2-A16-CD81EGFP
Conditions: human, HepG2-A16-CD81EGFP cells; read-out: INHIBITION
Below, each entry is listed alongside its reported cytotoxicity at 10 µM.

>  <compound>
Cc1cc(C(=O)N2CCN(c3nc4c(C(C)C)cccc4s3)CC2)on1

>  <cytotoxicity at 10 µM / %>
6.64

$$$$
>  <compound>
Cc1cccc(-c2ccc(C(=O)NCC3CCCO3)c(=O)[nH]2)c1 (stereo unspecified)

>  <cytotoxicity at 10 µM / %>
-7.36

$$$$
>  <compound>
CC(C)n1cc(C(=O)N2CCN(c3cccc(C(F)(F)F)c3)CC2)cn1

>  <cytotoxicity at 10 µM / %>
5.37

$$$$
>  <compound>
O=C(C[C@@H]1COC[C@H]2CN(Cc3ccsc3)C[C@@H]12)N1CCCC1

>  <cytotoxicity at 10 µM / %>
1.64

$$$$
>  <compound>
CS(=O)(=O)NC[C@@H]1OC[C@H]2CN(C(=O)c3ccc[nH]3)CC[C@H]21

>  <cytotoxicity at 10 µM / %>
0.253

$$$$
>  <compound>
CCN(CC(=O)Nc1c(C)n[nH]c1C)CC(O)c1ccc(C)cc1 (stereo unspecified)

>  <cytotoxicity at 10 µM / %>
-2.86

$$$$

----------
Assay: Toxicity liver stage against HepG2, at 10uM
Assay type: cell-based
Set-up: test concentration 10 uM, cell line HepG2-A16-CD81EGFP
Settings: human, HepG2-A16-CD81EGFP cells; read-out: INHIBITION
In this section, each of the compounds is paired with its reported cytotoxicity at 10 µM.
parameter_measured: cytotoxicity at 10 µM (%)

>  <compound>
Cc1nnc(NC(=O)NC2CCCc3c2cnn3CCO)s1 (centres undefined)

>  <unit_info>
%

>  <reported_value>
6.66

$$$$
>  <compound>
CN(C)C(=O)NC1COC2(CCN(S(=O)(=O)c3ccccc3)CC2)C1 (centres undefined)

>  <unit_info>
%

>  <reported_value>
-88.5

$$$$
>  <compound>
O=C(c1cn(-c2cc(N3CCSCC3)ncn2)cn1)N1CCSCC1

>  <unit_info>
%

>  <reported_value>
-17.3

$$$$
>  <compound>
Cc1nc(-c2ccccc2)n(CC(=O)NC(C2CC2)C2CC2)n1

>  <unit_info>
%

>  <reported_value>
11

$$$$

----------
Experiment: Toxicity liver stage against HepG2, at 10uM
Type: cell-based
Design: test concentration 10 uM, cell line HepG2-A16-CD81EGFP
Settings: human, HepG2-A16-CD81EGFP cells; read-out: INHIBITION
parameter_measured: cytotoxicity at 10 µM (%)

>  <compound>
O=C(Nc1cccc(CN2CCOC2=O)c1)N1CCCC1

>  <reported_value>
-3.54

$$$$
>  <compound>
Cc1noc(CNC(=O)NCCc2ccc(Cl)cc2)n1

>  <reported_value>
6.93

$$$$
>  <compound>
CCCc1cc(N2CCC(NC3CCOCC3)CC2)nc(C)n1

>  <reported_value>
5.27

$$$$
>  <compound>
CC(C)N(C)C(=O)Cn1ncc(N(C)CCc2ccccc2)cc1=O

>  <reported_value>
0.562

$$$$
>  <compound>
Cc1cc(NC(=O)CC2(Cn3cnnn3)CCCCC2)nn1C

>  <reported_value>
10.4

$$$$
>  <compound>
CN(C)C[C@H]1OC[C@@H]2CCN(S(=O)(=O)c3cccs3)C[C@@H]21

>  <reported_value>
3.04

$$$$
>  <compound>
CN1CCCC1CCNC(=O)c1ccccc1-n1cnc(CN)c1 (stereo not drawn)

>  <reported_value>
8.6

$$$$
>  <compound>
CN1CC2(CCN(S(=O)(=O)C3CC3)CC2)c2ccccc21

>  <reported_value>
-4.35

$$$$

----------
cytotoxicity at 10 µM values by entry
Test: Toxicity liver stage against HepG2, at 10uM
Format: cell-based
Set-up: test concentration 10 uM, cell line HepG2-A16-CD81EGFP
Settings: human, HepG2-A16-CD81EGFP cells; read-out: INHIBITION

>  <compound>
COc1ccc(CN2CCc3nc4ccsc4c(=O)n3CC2)c(C)c1C

>  <cytotoxicity at 10 µM (%)>
67.3

$$$$
>  <compound>
O=C(NCCc1ccc(Cl)s1)NCc1nnc2n1CCCC2

>  <cytotoxicity at 10 µM (%)>
-2.45

$$$$
>  <compound>
CCN(CC)CCNC(=O)C(C)OCC(F)(F)F (stereo unspecified)

>  <cytotoxicity at 10 µM (%)>
4.23

$$$$
>  <compound>
CCc1nc(CN(C)C2CCN(CC(=O)N3CCOCC3)C2)no1 (stereo unspecified)

>  <cytotoxicity at 10 µM (%)>
-5.32

$$$$
>  <compound>
Cc1cc(-c2ccccc2C(=O)O)nc(C2CCCN(C(C)C)C2)n1 (stereo unspecified)

>  <cytotoxicity at 10 µM (%)>
-4.47

$$$$
>  <compound>
CCc1csc(C2CCCN(C(=O)COc3cc(C)on3)C2)n1 (stereo unspecified)

>  <cytotoxicity at 10 µM (%)>
-9.71

$$$$
>  <compound>
CS(=O)(=O)Cc1ccccc1NCc1cc(Cl)ccc1Cl

>  <cytotoxicity at 10 µM (%)>
7.67

$$$$
>  <compound>
CCc1cnc(N2C[C@@H]3[C@@H](C(=O)NC(C)C)CCS(=O)(=O)[C@@H]3C2)nc1

>  <cytotoxicity at 10 µM (%)>
-146

$$$$
>  <compound>
CCCn1nnnc1COC(=O)C1COc2ccc(Cl)cc2C1 (stereo unspecified)

>  <cytotoxicity at 10 µM (%)>
-8.68

$$$$
>  <compound>
Cc1cccc(CN2CCOCC2c2[nH]ncc2C)n1 (stereo unspecified)

>  <cytotoxicity at 10 µM (%)>
6.91

$$$$
>  <compound>
Cc1cnn(CC2CCCCN2C(=O)c2n[nH]c3ccccc23)c1 (stereo unspecified)

>  <cytotoxicity at 10 µM (%)>
-8.25

$$$$

----------
Assay: Toxicity liver stage against HepG2, at 10uM
Type: cell-based
Parameters: test concentration 10 uM, cell line HepG2-A16-CD81EGFP
Conditions: human, HepG2-A16-CD81EGFP cells; read-out: INHIBITION
parameter_measured: cytotoxicity at 10 µM (%)

>  <molecule>
CC(C)=CCC1(C(=O)O)CCCN(CCC(=O)NC2CC2)C1 (configuration not stated)

>  <reported_value>
-7.69

$$$$
>  <molecule>
O=C(C1CCC1)N1CCC2(CCCN2CC2CC2)CC1

>  <reported_value>
-2.45

$$$$
>  <molecule>
O=C(C1CC=CC1)N1CC[C@@H]2O[C@H](COCC3CCOCC3)CC[C@@H]21

>  <reported_value>
-0.0499

$$$$
>  <molecule>
CCCNc1c(NC(=O)NCCOC)c(=O)oc2ccccc12

>  <reported_value>
-6.23

$$$$
>  <molecule>
CN(CCc1cn[nH]c1)C(=O)C1CC(=O)N(Cc2ccccn2)C1 (configuration not stated)

>  <reported_value>
-6.47

$$$$
>  <molecule>
O=c1oc(-c2ccc(F)cc2)nn1CC1CCOC1 (configuration not stated)

>  <reported_value>
5.53

$$$$
>  <molecule>
O=C(NCCn1ccnc1)N1CCN(Cc2cccs2)CC1

>  <reported_value>
-7.49

$$$$
>  <molecule>
CCOc1ncccc1CNC(=O)Nc1ccc(CC)cc1

>  <reported_value>
-23.7

$$$$
>  <molecule>
CN(C)c1nc(NCCc2cnccn2)ncc1F

>  <reported_value>
5.56

$$$$
>  <molecule>
COCCNC(=O)C1CC(=O)N(c2n[nH]c3cccc(F)c23)C1 (configuration not stated)

>  <reported_value>
3.23

$$$$
>  <molecule>
CCN1CC2(CC1=O)CN(Cc1ccncc1)CCN(C(=O)C(C)C)C2 (configuration not stated)

>  <reported_value>
-0.182

$$$$
>  <molecule>
CCCC(=O)N(C)c1cccc2ncccc12

>  <reported_value>
3.94

$$$$
>  <molecule>
CCCN1CCCC1Cn1nc(C)cc1C (configuration not stated)

>  <reported_value>
-7.72

$$$$
>  <molecule>
CN1C(=O)CC(c2ccccc2)C12CCN(c1ncc(F)cn1)CC2 (configuration not stated)

>  <reported_value>
-108

$$$$
>  <molecule>
CC(C(=O)N1CCC(Nc2cccnn2)CC1)n1ccnc1 (configuration not stated)

>  <reported_value>
-9.44

$$$$
>  <molecule>
COc1ccccc1Nc1nc2c(s1)C(=O)CN(C(=O)CC(C)C)C2

>  <reported_value>
61.2

$$$$
>  <molecule>
Cc1noc(C)c1CN1CCCC2(CCN(C(=O)C3CC3)C2)C1 (configuration not stated)

>  <reported_value>
2

$$$$
>  <molecule>
CN1CCNCC(Cc2cnc3ccccc3c2)C1 (configuration not stated)

>  <reported_value>
-12.4

$$$$
>  <molecule>
CC(C)c1nsc(N2CCS(=O)(=O)CC2)n1

>  <reported_value>
-2.41

$$$$
>  <molecule>
COc1ccc(CN(CCC#N)CCN2CCOCC2)c(OC)c1

>  <reported_value>
-1.39

$$$$
>  <molecule>
O=C(c1cn(CC(=O)N2CCc3[nH]cnc3C2)c2ccccc12)C1CC1

>  <reported_value>
10.2

$$$$
>  <molecule>
O=C(CCCc1ccccn1)Nc1cccc(N2CCCNC2=O)c1

>  <reported_value>
1.94

$$$$
>  <molecule>
CCN(CC(=O)NC)C(=O)c1cc(-c2cccc(Cl)c2)no1

>  <reported_value>
8.5

$$$$
>  <molecule>
O=C(c1cc(Cl)c2c(c1)OCO2)N1CCN(c2ncccn2)CC1

>  <reported_value>
-0.769

$$$$
>  <molecule>
Cn1cc(CN2CCn3cc(CNC(=O)CC4CC4)nc3C2)cn1

>  <reported_value>
-83.3

$$$$
>  <molecule>
Cc1nc(C2CCCN2C(=O)CCc2ccccc2)ncc1C(N)=O (configuration not stated)

>  <reported_value>
-19.5

$$$$
>  <molecule>
N#Cc1ccc(S(=O)(=O)Nc2cnn(C3CCOCC3)c2)cc1

>  <reported_value>
-11.3

$$$$
